# Tested on: SF-539 CNS
# test: NCI tumour cell line growth inhibition, 48 h
Measured TGI, listed per entry.
All answers are understood in µM, so give the number only.

Below, 5 compounds whose answers are already recorded.
# compound, TGI / µM
rows = [
    ("O=C(CNC(=O)c1ccccc1)Oc1c(Cl)c(Cl)c(Cl)c(Cl)c1Cl", 95.1),
    ("O=C(Nc1ccccc1)C(=O)C(C(=O)c1ccccc1F)C1OC(=O)c2ccccc21 (stereo unspecified)", 43.2),
    ("Clc1ccc(C2=Nc3ccccc3SC(c3cccs3)C2)cc1 (stereo unspecified)", 32),
    ("COc1ccc(N=NC(=O)NC(CC(C)C)C(=O)NC(Cc2ccccc2)C(=O)O)cc1 (stereo unspecified)", 3.22),
    ("CN(C)c1ccc(/C=C(\\C#N)c2nc(-c3cc4ccccc4oc3=O)cs2)cc1", 26.7),
]

// returns reported TGI for input O=c1ssc2c1Nc1c(ssc1=O)S2
21.5

// returns reported TGI for input CN(C)CCOc1ccc2[nH]c(C(=O)N3CC(CCl)c4c3cc(NC(=O)OCc3ccc([N+](=O)[O-])cc3)c3ccccc43)cc2c1 (stereo unspecified)
2.99

// returns reported TGI for input CCCCCCCCCCCCCCCCCC(=O)NCC(COP(=O)([O-])OCC[N+](C)(C)C)OC (stereo unspecified)
31.8

// returns reported TGI for input COc1ccc(-c2nn(C(=O)NCCN(C)C)cc2-c2ccncc2)cc1Cl
13.1

// returns reported TGI for input Nc1ncc(-c2ccc3ncnc(N4CCc5ccc(Cl)cc54)c3c2)cn1
3.79
